This listing pairs molecules with measured inclusion score.
- TEST_NAME: reducers of polyQ inclusions in PC12 cells, cell-based, NGF-treated PC12, GFPQ80 (AID 1614);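 further: lower means fewer inclusions and 0 means no inclusions at all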
- CONDITIONS: PC12 NGF-treated GFP-polyQ80 inclusion reduction
Quick one: just the number, no unit, thanks!

{"MOLECULE": "CN(C)CC/C=C1/c2ccccc2COc2ccccc21", "inclusion score": 2}
{"MOLECULE": "NCC[C@@H](O)C(=O)N[C@@H]1C[C@H](N)[C@@H](O[C@H]2O[C@H](CN)[C@@H](O)[C@H](O)[C@H]2O)[C@H](O)[C@H]1O[C@H]1O[C@H](CO)[C@@H](O)[C@H](N)C1O (some centres undefined)", "inclusion score": 2}
{"MOLECULE": "CNC(C)[C@@H]1CC[C@@H](N)[C@@H](OC2[C@@H](N)C[C@@H](N)[C@H](OC3OC[C@](C)(O)[C@H](NC)[C@H]3O)[C@H]2O)O1 (some centres undefined)", "inclusion score": 2}

What does the record list as inclusion score for CC(=O)OCC(=O)[C@@]1(O)[C@H](OC(C)=O)CC2C3CCC4=CC(=O)C=C[C@]4(C)[C@@]3(F)[C@@H](O)C[C@@]21C (some centres undefined) ?
2.5
